Where do these numbers come from? They come from the supplement of paper PMC4862054.

- Test system: MCF-10A
- condition: 72 h
reported.property: EC50, CellTiter-Glo (nM)
Answers are plain numbers, in nM.

Observe how each entry below is paired with its result.
compound="Cc1ccc(C(=O)Nc2ccc(CN3CCN(C)CC3)c(C(F)(F)F)c2)cc1C#Cc1cnc2cccnn12 [Ponatinib]" unit_text=nM recorded_measurement=643
compound="CN[C@@H]1C[C@H]2O[C@@](C)([C@@H]1OC)n1c3ccccc3c3c4c(c5c6ccccc6n2c5c31)C(=O)N[C@H]4O [UCN-01]" unit_text=nM recorded_measurement=45.7
compound="C#Cc1cccc(Nc2ncnc3cc(OCCOC)c(OCCOC)cc23)c1 [Erlotinib]" unit_text=nM recorded_measurement=96

// moving on: another record for EC50, CellTiter-Glo
Just so you know, measured EC50, CellTiter-Glo for CCC1=C[C@@H]2CN(C1)Cc1c([nH]c3ccccc13)[C@@](C(=O)OC)(c1cc3c(cc1OC)N(C)[C@H]1[C@@](O)(C(=O)OC)[C@H](OC(C)=O)[C@]4(CC)C=CCN5CC[C@]31[C@@H]54)C2 [Vinorelbine] came out at 27.3
